experimental.system: 5-HT transporter (Rattus norvegicus)
Construct: from tissue; host or cells: rat brain synaptosomes (marrow/medulla and pons), P2 fraction
Sequence (P31652 whole entry): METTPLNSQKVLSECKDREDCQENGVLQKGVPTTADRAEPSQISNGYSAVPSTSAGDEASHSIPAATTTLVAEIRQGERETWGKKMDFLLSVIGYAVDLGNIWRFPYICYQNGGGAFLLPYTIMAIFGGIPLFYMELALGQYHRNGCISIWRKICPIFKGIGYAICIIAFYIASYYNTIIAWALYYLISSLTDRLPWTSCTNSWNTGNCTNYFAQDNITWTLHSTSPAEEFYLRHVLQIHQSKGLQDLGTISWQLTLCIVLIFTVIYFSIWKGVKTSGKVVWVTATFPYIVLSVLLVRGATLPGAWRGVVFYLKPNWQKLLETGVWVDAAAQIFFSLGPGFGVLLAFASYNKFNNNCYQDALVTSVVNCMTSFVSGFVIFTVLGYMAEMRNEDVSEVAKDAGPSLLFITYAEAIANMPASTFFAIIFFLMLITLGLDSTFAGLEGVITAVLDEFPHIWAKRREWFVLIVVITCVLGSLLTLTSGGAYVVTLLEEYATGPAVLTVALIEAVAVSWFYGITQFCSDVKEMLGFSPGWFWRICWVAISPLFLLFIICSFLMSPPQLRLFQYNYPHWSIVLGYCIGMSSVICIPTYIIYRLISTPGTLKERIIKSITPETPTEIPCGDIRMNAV
method.summary: Inhibition of 5-HT uptake in synaptosomes
Type: biochemical
test.context: read-out: Uptake_5-HT, rat, 1 μM, % inhibition
assay.metric: inhibition at 1 µM (%)
Numbers only; they are read as %.

Request: Data request, read-out inhibition at 1 µM, for CC(C)NC(=S)N1CCC2(CC1)NC(=O)C(Cc1ccccc1)N2 (stereo not drawn)
Result: 41

Request: I have this molecule here, CC1(C)C2CCC1(CS(=O)(=O)N1CCC3(CC1)NCC(=O)N3Cc1ccccc1F)C(=O)C2 (stereo not drawn) , and I need its recorded inhibition at 1 µM.
Result: 60

Request: Could you share which inhibition at 1 µM value was measured for COCCNC(=S)N1CCC2(CC1)NC(CCSC)C(=O)N2Cc1ccc2ccccc2c1 (stereo not drawn) ?
Result: 39

* * *

Tested on: batrachotoxin (BTX) binding site of the sodium channel
method.summary: Affinity to the batrachotoxin (BTX) binding site of the sodium channel
test.context: rat cerebrocortex synaptosomes, [3H]-batrachotoxinin A20 α-benzoate 10 nM; test concentration not given
As shown below, each of these compounds has a reported BTX Inhibition value.
Answer as a number with no unit attached.

Request: Quick one: BTX Inhibition of CCCCN1C(=O)C(C(C)C)NC12CCN(C(=S)NCc1ccc(Cl)cc1)CC2 (stereo not shown) [Example 150] ?
Result: 73

Request: Could you share which BTX Inhibition value was measured for COc1ccccc1NC(=S)N1CCC2(CC1)NC(Cc1ccccc1)C(=O)N2Cc1ccccc1F (stereo not shown) [Example 108] ?
Result: 86

Request: Quick one: BTX Inhibition for CCCCN1C(=O)C(C(C)C)NC12CCN(C(=S)Nc1c(F)c(F)c(F)c(F)c1F)CC2 (stereo not shown) [Example 152] ?
Result: 39

Request: Using the record for COc1cccc(NC(=O)N2CCC3(CC2)NC(CCSC)C(=O)N3Cc2cccc(C#N)c2)c1 (stereo not shown) [Example 236] , report its BTX Inhibition.
Result: 42

Request: For COC(=O)c1ccc(CN2C(=O)C(C(C)C)NC23CCN(C(=S)NCc2ccc(Cl)cc2)CC3)cc1 (stereo not shown) [Example 191] , what is its reported BTX Inhibition?
Result: 74

Request: What BTX Inhibition value was documented for this compound, CCOC(=O)CN1C(=O)C(Cc2ccccc2)NC12CCN(C(=S)NCC1CCCCC1)CC2 (stereo not shown) [Example 159] ?
Result: 84

Request: Fill in the blank: the reported BTX Inhibition of CCOc1ccc(NC(=S)N2CCC3(CC2)NC(CCSC)C(=O)N3Cc2ccc(F)cc2)cc1 (stereo not shown) [Example 200] is ____.
Result: 30

Request: Which BTX Inhibition is reported for this compound? CCCCN1C(=O)C(CCSC)NC12CCN(C(=S)Nc1ccc(OCC)cc1)CC2 (stereo not shown) [Example 158]
Result: 35

Request: Need BTX Inhibition of O=C1C(Cc2ccccc2)NC2(CCN(C(=S)NCc3ccc(Cl)cc3)CC2)N1Cc1ccccc1F (stereo not shown) [Example 197] , thanks.
Result: 77

Request: Using the record for CCCc1ccc(S(=O)(=O)N2CCC3(CC2)NC(Cc2ccccc2)C(=O)N3CC(=O)OCC)cc1 (stereo not shown) [Example 67] , report its BTX Inhibition.
Result: 40

Request: Report BTX Inhibition for C#CCN1C(=O)C(Cc2ccccc2)NC12CCN(S(=O)(=O)c1ccccc1C(F)(F)F)CC2 (stereo not shown) [Example 39] please.
Result: 39

Request: What does the data say about its BTX Inhibition? Entry: CC(C)C1NC2(CCN(C(=S)Nc3c(F)c(F)c(F)c(F)c3F)CC2)N(Cc2ccccc2)C1=O (stereo not shown) [Example 154]
Result: 61

Request: Consider the compound shown here: O=C1C(Cc2ccccc2)NC2(CCN(C(=S)NCC3CCCCC3)CC2)N1Cc1ccccc1F (stereo not shown) [Example 171] What is its recorded BTX Inhibition?
Result: 86
